Entry source: patent US20230109839A1

# Study target: human Nav1.1 (Homo sapiens, UniProt P35498)
# Construct: host or cells: HEK293
# Method description: Amplification of Nav1.1-derived voltage-gated sodium current (Nav1.1 current), automated patch clamp (Test 1)
# Type: cell-based
# Measurement parameters: Concentration for evaluation 10 μM; HEK293 cell line stably expressing human Nav1.1

Molecule: COc1cncc(C2=CCN(C(=O)Cn3nc(C4=CCC(C)CC4)ccc3=O)CC2)c1 (stereo not drawn)
Unit label: %
Nav1.1 current amplification rate (%): 270
//
Molecule: CC1CC=C(c2ccc(=O)n(CC(=O)Nc3ccc(-c4cnn(C)c4)nc3)n2)CC1 (stereo not drawn)
Unit label: %
Nav1.1 current amplification rate (%): 173
//
Molecule: N#Cc1ccc(NC(=O)Cn2nc(N3CCC4(CC3)CC4)ccc2=O)cc1
Unit label: %
Nav1.1 current amplification rate (%): 212
//
Molecule: CC1C=C(c2ccc(=O)n(CC(=O)Nc3ccc(C#N)cc3)n2)CC(C)O1 (stereo not drawn)
Unit label: %
Nav1.1 current amplification rate (%): 2
//
Molecule: CC1(C)CCCC(c2ccc(=O)n(CC(=O)Nc3ccc(C#N)cc3)n2)C1 (stereo not drawn)
Unit label: %
Nav1.1 current amplification rate (%): 85
//
Molecule: CC1CC=C(c2ccc(=O)n(CC(=O)N3CCN(c4cnn(C)c4)CC3)n2)CC1 (stereo not drawn)
Unit label: %
Nav1.1 current amplification rate (%): 93
//
Molecule: CC1CC=C(c2ccc(=O)n(CC(=O)N3CCC(c4ccncc4)CC3)n2)CC1 (stereo not drawn)
Unit label: %
Nav1.1 current amplification rate (%): 71
//
Molecule: CC1CC=C(c2ccc(=O)n(CC(=O)N3CCN(Cc4ccncc4)CC3)n2)CC1 (stereo not drawn)
Unit label: %
Nav1.1 current amplification rate (%): 53
//
Molecule: CC1CC=C(c2ccc(=O)n(CC(=O)Nc3cc(F)c4ocnc4c3)n2)CC1 (stereo not drawn)
Unit label: %
Nav1.1 current amplification rate (%): 260
//
Molecule: N#Cc1ccc(NC(=O)Cn2nc(N3CCC4(CC3)COC4)ccc2=O)cc1
Unit label: %
Nav1.1 current amplification rate (%): 5
//
Molecule: CC1CC=C(c2ccc(=O)n(CC(=O)N3CCN(c4nccs4)CC3)n2)CC1 (stereo not drawn)
Unit label: %
Nav1.1 current amplification rate (%): 40
//
Molecule: COc1cc(C2=CCC(C)CC2)nn(CC(=O)Nc2ccn3ccnc3c2)c1=O (stereo not drawn)
Unit label: %
Nav1.1 current amplification rate (%): 218
//
Molecule: CCCCN(C)c1ccc(=O)n(CC(=O)Nc2ccc(C#N)cc2)n1
Unit label: %
Nav1.1 current amplification rate (%): 77
//
Molecule: CC1CCCN(c2ccc(=O)n(CC(=O)Nc3ccc(C#N)cc3)n2)C1 (stereo not drawn)
Unit label: %
Nav1.1 current amplification rate (%): 76
//
Molecule: COC1CN(c2cccc3c2CCN3C(=O)Cn2nc(C3=CCC(C)(C)CC3)ccc2=O)C1
Unit label: %
Nav1.1 current amplification rate (%): 232
//
Molecule: CC1CC2(C1)CN(c1cnc3cnn(CC(=O)Nc4ccn5ncnc5c4)c3n1)C2
Unit label: %
Nav1.1 current amplification rate (%): 58
//
Molecule: Cc1c(N2CCC(C)CC2)nn(CC(=O)Nc2ccc(C#N)cc2)c(=O)c1C
Unit label: %
Nav1.1 current amplification rate (%): 301
//
Molecule: Cc1nccn1-c1cccc(NC(=O)Cn2nc(N3CCC(C)CC3)ccc2=O)c1
Unit label: %
Nav1.1 current amplification rate (%): 15

----------
# Study target: human Nav1.1 (Homo sapiens, UniProt P35498)
# Construct: host or cells: HEK293
# Method description: Amplification of Nav1.1-derived voltage-gated sodium current (Nav1.1 current), automated patch clamp (Test 1)
# Assay type: cell-based
# Measurement parameters: Concentration for evaluation 10 μM; HEK293 cell line stably expressing human Nav1.1
Entry class follows Nav1.1 current amplification rate (%): bottom range = under 60%, center range = from 60% up to 300%, top range = 300% and over

Compound: CC1CCN(c2ccc(=O)n(CC(=O)Nc3ccc4oc(=O)n(C)c4c3)n2)CC1
Assigned class: center range

Compound: CC1CCN(c2ccc(=O)n(CC(=O)Nc3cncnc3)n2)CC1
Assigned class: bottom range

Compound: CC1CC(C)CN(c2ccc(=O)n(CC(=O)Nc3ccc(C#N)cc3)n2)C1 (centres unmarked) [Example 15]
Assigned class: bottom range

Compound: CC1CC=C(c2ccc(=O)n(CC(=O)N3CCN(c4ccccn4)CC3)n2)CC1 (centres unmarked)
Assigned class: center range

Compound: CC1CC=C(c2ccc(=O)n(CC(=O)N3CCN(c4cncc(F)c4)CC3)n2)CC1 (centres unmarked)
Assigned class: top range

Compound: N#Cc1ccc(NC(=O)Cn2nc(N3CCC4(CCCC4)C3)ccc2=O)cc1
Assigned class: center range

Compound: COc1cc(C2=CCC(C(F)(F)F)CC2)nn(CC(=O)Nc2ccc3ocnc3c2)c1=O (racemic)
Assigned class: center range

Compound: N#Cc1ccc(NC(=O)Cn2nc(N3CCC4(CCC4)C3)ccc2=O)cc1
Assigned class: top range

Compound: Cc1ccc(-c2ccc(=O)n(CC(=O)Nc3cncnc3)n2)cc1
Assigned class: bottom range

Compound: Cc1nc2cc(NC(=O)Cn3nc(C4=CCC(C)CC4)ccc3=O)ccc2o1 (racemic)
Assigned class: center range

Compound: Cc1ccc(-c2ccc(=O)n(CC(=O)N3CCc4cc(N5CCOCC5)ccc43)n2)cc1
Assigned class: center range

Compound: CC1(C)CC=C(c2ccc(=O)n(CC(=O)N3CCN(c4cccnc4)CC3)n2)CC1
Assigned class: center range

Compound: CC1CC=C(c2ccc(=O)n(CC(=O)Nc3ccnc(CN4CCOCC4)c3)n2)CC1 (centres unmarked)
Assigned class: bottom range

Compound: COc1cc(=O)n(CC(=O)N2CCc3c(N4CCOCC4)cccc32)nc1C1=CCC(C)(C)CC1
Assigned class: top range

Compound: COc1cncc(NC(=O)Cn2nc(N3CCC(C)CC3)ccc2=O)c1
Assigned class: bottom range

Compound: CC1CCN(c2nn(CC(=O)Nc3ccc(C#N)cc3)c(=O)c3c2CCCC3)CC1
Assigned class: top range

----------
# Study target: human Nav1.1 (Homo sapiens)
# Construct: host or cells: HEK293
# Method description: Amplification of Nav1.1-derived voltage-gated sodium current (Nav1.1 current), automated patch clamp (Test 1)
# Assay type: cell-based
# Measurement parameters: Concentration for evaluation 1 μM; HEK293 cell line stably expressing human Nav1.1
Readout: Nav1.1 current amplification rate (%)

Compound: CC1CCN(c2ncc3cnn(CC(=O)Nc4ccn5ncnc5c4)c3n2)CC1(F)F (stereo not shown)
Endpoint result: 174%

Compound: CC1CC=C(c2ccc(=O)n(CC(=O)N3CCc4c(CN5CCCCC5)cccc43)n2)CC1 (stereo not shown)
Endpoint result: 26%

Compound: COC1CN(Cc2cccc3c2CCN3C(=O)Cn2nc(C3=CCC(C)CC3)ccc2=O)C1 (stereo not shown)
Endpoint result: 60%

Compound: CC1CC=C(c2ccc(=O)n(CC(=O)Nc3ccc4nccn4n3)n2)CC1 (stereo not shown)
Endpoint result: 96%

----------
# Study target: human Nav1.1 (Homo sapiens, UniProt P35498)
# Construct: host or cells: HEK293
# Method description: Amplification of Nav1.1-derived voltage-gated sodium current (Nav1.1 current), automated patch clamp (Test 1)
# Assay type: cell-based
# Measurement parameters: concentration for evaluation 1 μM; HEK293 stably expressing human Nav1.1
Short version: Nav1.1 current amplification rate (%) at least 50% is y, less is n.

Compound: O=C(Cn1ncc2cnc(N3CCC4(CCC4)CC3)nc21)Nc1ccc2ncnn2c1
Study target: human Nav1.1 (Homo sapiens, UniProt P35498)
Assigned class: n

Compound: CC1CCN(c2ncc3cnn(CC(=O)Nc4ccc5cncnc5c4)c3n2)CC1
Study target: human Nav1.1 (Homo sapiens, UniProt P35498)
Assigned class: y

Compound: O=C(Cn1ncc2ccc(N3CCC4(CCC4)CC3)nc21)Nc1ccn2ncnc2c1
Study target: human Nav1.1 (Homo sapiens, UniProt P35498)
Assigned class: n

Compound: N#Cc1ccc(NC(=O)Cn2ncc3cnc(N4CCC5(CC5)C(F)(F)C4)nc32)nc1
Study target: human Nav1.1 (Homo sapiens, UniProt P35498)
Assigned class: y

Compound: CN(c1ncc2cnn(CC(=O)Nc3ccn4ncnc4c3)c2n1)C1CCCC1(F)F (centres unmarked)
Study target: human Nav1.1 (Homo sapiens, UniProt P35498)
Assigned class: y

Compound: O=C(Cn1ncc2ccc(C3=COCCC3)nc21)Nc1ccn2ccnc2c1
Study target: human Nav1.1 (Homo sapiens, UniProt P35498)
Assigned class: n

Compound: O=C(Cn1ncc2ccc(-c3ccc(F)cc3F)nc21)Nc1ccc2ncnn2c1
Study target: human Nav1.1 (Homo sapiens, UniProt P35498)
Assigned class: n

Compound: CC1CCN(c2ccc3cnn(CC(=O)Nc4ccc5cnnn5c4)c3n2)CC1
Study target: human Nav1.1 (Homo sapiens, UniProt P35498)
Assigned class: n
